tested on: K4 kissing-loop RNA reporter; assay: apparent KD of K4 kissing-loop reporter; higher = weaker reporter binding; details: Eterna round: R107; input ligand: none;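 also: bound reporter read as fluorescence of individual clusters on recovered sequencing chips by microscopy, with normalized cluster intensities fitted with a binding model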
reported.property: apparent KD of K4 kissing-loop reporter (nM)
Give just the number in nM; leave the unit off.

Ask: Which apparent KD of K4 kissing-loop reporter reading was recorded for the sequence UCCACGCUUAGAGGAUAUCGGAUUAGAGUGAUGUUCUAAAGAAGCCCAGUGAUGUUGGAUGGUAUACGAGAAGGCUGAGGCGUGG [Same State FMN B GF 3] ?
Result: 725

Ask: Which apparent KD of K4 kissing-loop reporter reading was recorded for the sequence AGACUACCACACUGUCAAUAGACAGUGUACUAGGAUAUGCUGAUAAGCAGAAGGAGUGAUGUUCCUGGGUAGUCAAUAAAAUAAU [FmnAX 13 U28+G67] ?
Result: 486

Ask: Which apparent KD of K4 kissing-loop reporter reading was recorded for the sequence AGUGUUAGGUUAGAUACCAGCCGUUCGUGAAUAAUCCUCGAACCGCCAGUGAUGUUGGCAGGCCCUUGGCAGCUAACAGAACAGA [Maxeusla] ?
Result: 207
